Measured values drawn from patent US8951969B2 for this set.

experiment: Pharmacokinetics of combined dosage form: randomized, open, 3-way crossover study; assay type: in vivo; settings: human; plasma netupitant; oral netupitant 450 mg single dose, fasting; median (range); read-out: Netupitant tmax
test_readout: Tmax (h)

| query_smiles | test_readout | numeric_result |
| --- | --- | --- |
| Cc1ccccc1-c1cc(N2CCN(C)CC2)ncc1N(C)C(=O)C(C)(C)c1cc(C(F)(F)F)cc(C(F)(F)F)c1 | Tmax | 4.5 |

====

assay: Pharmacokinetics of combined dosage form: randomized, open, 3-way crossover study; format: in vivo; details: human; plasma netupitant; oral netupitant 450 mg single dose, fasting; mean (SD); read-out: Netupitant AUC0-t

| query_smiles | AUC(0-t) [ng·h/mL] |
| --- | --- |
| Cc1ccccc1-c1cc(N2CCN(C)CC2)ncc1N(C)C(=O)C(C)(C)c1cc(C(F)(F)F)cc(C(F)(F)F)c1 | 22800 |
